Give pEC50 for every item shown.
# measured on: human somatostatin receptor subtype 2 (Homo sapiens)
# Sequence (P30874 whole entry): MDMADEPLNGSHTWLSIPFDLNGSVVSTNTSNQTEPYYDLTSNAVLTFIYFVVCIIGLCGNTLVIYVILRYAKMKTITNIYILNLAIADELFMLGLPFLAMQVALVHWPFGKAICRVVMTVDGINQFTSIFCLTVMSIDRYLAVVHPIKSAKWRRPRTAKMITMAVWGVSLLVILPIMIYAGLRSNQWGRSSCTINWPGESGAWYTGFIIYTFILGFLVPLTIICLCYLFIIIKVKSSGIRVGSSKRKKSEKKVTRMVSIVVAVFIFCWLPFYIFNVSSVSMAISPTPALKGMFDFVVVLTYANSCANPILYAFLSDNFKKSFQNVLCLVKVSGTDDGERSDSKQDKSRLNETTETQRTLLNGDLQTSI
# assay: cAMP assay for SST2R (inhibition of cAMP via human SST2 receptor)
# settings: Table B, read-out: SST2 potency
pEC50: −log10 of the molar value.

Reference set (5 entries):
[[record]]
compound = "N#Cc1ccc(-c2cncc(-c3nc4cccc(F)c4[nH]3)c2N2CC[C@H](N)C2)s1"
measured_on = "human somatostatin receptor subtype 2 (Homo sapiens)"
result = "6.00 to 7.00"

[[record]]
compound = "CC(N)C1CN(c2c(-c3ccc(F)c(C#N)c3)cncc2-c2nc3cc(F)cc(F)c3[nH]2)C1 (stereo not drawn)"
measured_on = "human somatostatin receptor subtype 2 (Homo sapiens)"
result = "6.00 to 7.00"

[[record]]
compound = "CC1(N)CCN(c2c(-c3ccnc(C#N)c3)cncc2-c2nc3cccc(Cl)c3[nH]2)C1 (stereo not drawn)"
measured_on = "human somatostatin receptor subtype 2 (Homo sapiens)"
result = "7.00 to 8.00"

[[record]]
compound = "COc1cc(-c2cncc(-c3nc4c(F)cccc4[nH]3)c2N2CC[C@](C)(N)C2)ccn1"
measured_on = "human somatostatin receptor subtype 2 (Homo sapiens)"
result = "6.00 to 7.00"

[[record]]
compound = "Cc1cc(F)cc(-c2cncc(-c3nc4c(F)c(F)ccc4[nH]3)c2N2CC(CN)C2)c1"
measured_on = "human somatostatin receptor subtype 2 (Homo sapiens)"
result = "< 6.00"


# batch: return pEC50 for each of the 3 compounds below
1. N#Cc1cc(-c2cncc(-c3nc4cccc(F)c4[nH]3)c2N2CC[C@H](N)C2)ccc1F
2. Cc1cccc2nc(-c3cncc(-c4ccnc(C#N)c4)c3N3CCC(C)(N)C3)[nH]c12 (stereo not drawn)
3. CC1(N)CCN(c2c(-c3cccc(C#N)c3)cncc2-c2nc3cccc(F)c3[nH]2)C1 (stereo not drawn)

Output:
1: 6.00 to 7.00; 2: 7.00 to 8.00; 3: 6.00 to 7.00

# batch: return pEC50 for each of the 5 compounds below
1. Cc1ccnc2[nH]c(-c3cncc(-c4ccc(F)c(C#N)c4)c3N3CC[C@](C)(N)C3)nc12
2. Cc1cc(F)cc(-c2cncc(-c3nc4ccc(Cl)cc4[nH]3)c2N2CC[C@H](N)C2)c1
3. C[C@]1(N)CCN(c2c(-c3ccnc(C#N)c3)cncc2-c2nc3cccc(C(F)(F)F)c3[nH]2)C1
4. Cc1c(F)ccc2nc(-c3cncc(-c4cc(F)cc(C#N)c4)c3N3CC[C@H](N)C3)[nH]c12
5. Cc1cc(F)cc(-c2cncc(-c3nc4cccc(C)c4[nH]3)c2N2CC(CN)C2)c1

Output:
1. 7.00 to 8.00
2. 6.00 to 7.00
3. 6.00 to 7.00
4. 6.00 to 7.00
5. < 6.00

---

# measured on: human somatostatin receptor subtype 5 (Homo sapiens, UniProt P35346)
# Sequence (P35346 whole entry): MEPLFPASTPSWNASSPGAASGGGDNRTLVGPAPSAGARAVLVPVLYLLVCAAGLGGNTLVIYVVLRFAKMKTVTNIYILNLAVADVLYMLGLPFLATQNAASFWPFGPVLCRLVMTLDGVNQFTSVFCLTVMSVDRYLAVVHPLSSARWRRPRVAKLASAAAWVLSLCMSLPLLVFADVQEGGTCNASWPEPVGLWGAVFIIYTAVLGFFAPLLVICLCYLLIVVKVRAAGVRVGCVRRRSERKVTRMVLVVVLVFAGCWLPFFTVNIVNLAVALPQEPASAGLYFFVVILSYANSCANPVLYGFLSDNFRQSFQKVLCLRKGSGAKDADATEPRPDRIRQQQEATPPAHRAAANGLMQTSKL
# assay: cAMP assay for SST5R (inhibition of cAMP via human SST5 receptor)
measured endpoint: EC50

Reference set (6 entries):
[[record]]
molecule = "NCC1CN(c2c(-c3nc4c(F)cc(F)cc4[nH]3)cncc2-c2ccccc2F)C1"
result = "100 to 1000 nM"

[[record]]
molecule = "C[C@]1(N)CCN(c2c(-c3cccc(C#N)c3)cncc2-c2nc3c(F)cccc3[nH]2)C1"
result = "< 10 nM"

[[record]]
molecule = "NC(=O)c1cccc(-c2cncc(-c3nc4cccc(F)c4[nH]3)c2N2CCC(N)(C(F)(F)F)C2)c1 (stereo not shown)"
result = "> 1000 nM"

[[record]]
molecule = "N#Cc1cc(F)cc(-c2cncc(-c3nc4ccc(F)c(F)c4[nH]3)c2N2CC[C@H](N)C2)c1"
result = "< 10 nM"

[[record]]
molecule = "CC1(N)CCN(c2c(-c3cc(F)cc(OCC#N)c3)cncc2-c2nc3cccc(F)c3[nH]2)C1 (stereo not shown)"
result = "< 10 nM"

[[record]]
molecule = "COc1cc(-c2cncc(-c3nc4c(F)cccc4[nH]3)c2N2CC[C@](C)(N)C2)ccn1"
result = "< 10 nM"


For the next question, use this molecule.
Input: Look up EC50 for this molecule: Cc1cc(F)cc(-c2cncc(-c3ncc[nH]3)c2N2CC(CN)C2)c1
Output: > 1000 nM

Where these numbers come from: patent US11608335B2
